Provenance of the data: PubChem BioAssay AID2561

- experimental_target: Pyruvate kinase (Leishmania mexicana) (UniProt Q27686)
- Sequence (Q27686 whole entry, looked up): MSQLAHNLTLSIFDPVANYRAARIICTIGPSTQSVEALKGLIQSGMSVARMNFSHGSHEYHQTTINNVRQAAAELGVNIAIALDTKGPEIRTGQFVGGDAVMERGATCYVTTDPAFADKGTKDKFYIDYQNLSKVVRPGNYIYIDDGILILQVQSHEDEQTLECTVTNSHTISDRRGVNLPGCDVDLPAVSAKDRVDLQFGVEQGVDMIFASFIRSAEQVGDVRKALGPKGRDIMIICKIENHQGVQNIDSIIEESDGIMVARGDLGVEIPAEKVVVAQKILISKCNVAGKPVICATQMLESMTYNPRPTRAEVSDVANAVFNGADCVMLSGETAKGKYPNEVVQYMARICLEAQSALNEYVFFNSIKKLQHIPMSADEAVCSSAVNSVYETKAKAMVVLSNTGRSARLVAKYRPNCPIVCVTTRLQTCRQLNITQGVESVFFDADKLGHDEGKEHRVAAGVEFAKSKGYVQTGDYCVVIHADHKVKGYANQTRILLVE
- assay_method_text: Confirmation Assay for Inhibitors of Leishmania Mexicana Pyruvate Kinase (LmPK): for Probe SAR; also: potency is read from the fitted curve at half-maximal effect
- reported_conditions: purified LmPK, ATP generation, Kinase-Glo luminescence; series mostly up to 57.5 µM
Inconclusive results are not listed. Activity calls are given as the source filed them. Calls follow the shape of the dose curve; as a rule, active = well fitted inhibition curve with a large enough effect; inconclusive = small, poorly fitted or top-dose-only effect, or effect the other way; inactive = flat fitted curve, though single readings scatter.
experimental_readout: Potency

Worked set:
molecule	experimental_target	Potency
O=S1(=O)N=C(Oc2cccc3ccccc23)c2ccccc21	Pyruvate kinase (Leishmania mexicana) (UniProt Q27686)	4.11 µM (active)
O=S1(=O)N=C(Oc2ccccc2C(F)(F)F)c2ccccc21	Pyruvate kinase (Leishmania mexicana) (UniProt Q27686)	6.51 µM (active)
O=S1(=O)N=C(OCc2ccccc2)c2ccccc21	Pyruvate kinase (Leishmania mexicana) (UniProt Q27686)	inactive
CCOc1ccc2[nH]c(C3C(=O)c4ccccc4C3=O)cc(=O)c2c1	Pyruvate kinase (Leishmania mexicana) (UniProt Q27686)	inactive
COc1ccc(N2C(=O)c3ccccc3C2=O)cc1	Pyruvate kinase (Leishmania mexicana) (UniProt Q27686)	inactive
CCOc1ccc2c(c1)C(=O)C(c1cc(=O)c3ccccc3[nH]1)C2=O (configuration not stated)	Pyruvate kinase (Leishmania mexicana) (UniProt Q27686)	inactive
O=S1(=O)N=C(Oc2ccc(Br)cc2)c2ccccc21	Pyruvate kinase (Leishmania mexicana) (UniProt Q27686)	2.91 µM (active)
Cc1cc2c(s1)c1cnn(Cc3ccccc3F)c(=O)c1n2C	Pyruvate kinase (Leishmania mexicana) (UniProt Q27686)	inactive
Cc1ccc(Nc2c(-c3ccsc3)nc3cccc(C)n23)cc1	Pyruvate kinase (Leishmania mexicana) (UniProt Q27686)	inactive
CN(C)c1cccc(S(=O)(=O)N2CCN(S(=O)(=O)c3ccc4c(c3)OCCO4)CC2)c1	Pyruvate kinase (Leishmania mexicana) (UniProt Q27686)	inactive

QUERY: Entry Cc1ccc(NS(=O)(=O)c2ccc3c(c2)CCC(C)(C)O3)cc1C has what Potency?
RESULT: inactive

QUERY: Entry O=S1(=O)N=C(Oc2cccc(Br)c2)c2ccccc21 has what Potency?
RESULT: 3.66 µM (active)

---

- experimental_target: Pyruvate kinase (Leishmania mexicana)
- assay_method_text: Confirmation Assay for Inhibitors of Leishmania Mexicana Pyruvate Kinase (LmPK): for Probe SAR
- reported_conditions: purified LmPK, ATP generation, Kinase-Glo luminescence; series mostly up to 57.5 µM
Records with an inconclusive call do not appear. Calls of active or inactive are those of the source. Calls follow the shape of the dose curve; as a rule, active = well fitted inhibition curve with a large enough effect; inconclusive = small, poorly fitted or top-dose-only effect, or effect the other way; inactive = flat fitted curve, though single readings scatter.
API: response.call in class 1 (active), class 0 (inactive)

Some solved entries appear below for comparison.
Cc1ccc(NS(=O)(=O)c2ccc(Cl)cc2)cc1C class 0
O=C1c2ccccc2C(=O)N1c1cccc2cccnc12 class 0
O=C1c2ccccc2C(=O)N1Cc1ccncc1 class 0

QUERY: State the result this test recorded for O=S1(=O)N=C(Oc2ccccc2-c2ccccc2)c2ccccc21 .
RESULT: class 1

QUERY: State the result this test recorded for CNc1cccc(S(=O)(=O)N2CCN(S(=O)(=O)c3ccc4c(c3)OCCO4)CC2)c1 .
RESULT: class 0

QUERY: State the result this test recorded for Cc1ccc(NS(=O)(=O)c2ccc3c(c2)NC(=O)CO3)cc1C .
RESULT: class 0

---

- experimental_target: Pyruvate kinase (Leishmania mexicana)
- assay_method_text: Confirmation Assay for Inhibitors of Leishmania Mexicana Pyruvate Kinase (LmPK): for Probe SAR
- reported_conditions: purified LmPK, ATP generation, Kinase-Glo luminescence; series mostly up to 57.5 µM
- From the text: NIH Chemical Genomics Center [NCGC] […] ATP generation was detected in a coupled reaction by luciferase-mediated luminescence, an ATP-dependent process. […]
Inconclusive results are not listed. Calls of active or inactive are those of the source. Calls follow the shape of the dose curve; as a rule, active = well fitted inhibition curve with a large enough effect; inconclusive = small, poorly fitted or top-dose-only effect, or effect the other way; inactive = flat fitted curve, though single readings scatter.
API: response.call in active, inactive

CSc1cc2c(s1)c1cnn(Cc3cccc(O)c3)c(=O)c1n2C inactive

QUERY: State the result this test recorded for COc1ccc(O)cc1 .
RESULT: inactive

QUERY: State the result this test recorded for Cc1ccc(NS(=O)(=O)c2ccc3c(c2)CCN(C(=O)C(F)(F)F)C3)cc1C .
RESULT: inactive

QUERY: State the result this test recorded for O=S1(=O)N=C(Oc2cccc(-c3ccccc3)c2)c2ccccc21 .
RESULT: active

QUERY: State the result this test recorded for Cc1cccc(OC2=NS(=O)(=O)c3ccccc32)c1 .
RESULT: active

QUERY: State the result this test recorded for Cc1ccc(NS(=O)(=O)c2cc3c(cc2F)NC(=O)CC3)cc1C .
RESULT: inactive

QUERY: State the result this test recorded for Cc1nc(-c2ccc(S(=O)(=O)Nc3ccc(C)c(C)c3)s2)cs1 .
RESULT: inactive
